test system: Adoxophyes orana fasciata; experiment: Test Example 8: spray on apple tree, release of Adoxophyes orana fasciata; assay type: in vivo; settings: in Malus domestica, 168 h; 500 ppm active ingredient; apple tree sprayed with 20 mL/cup; 60 first-instar Adoxophyes orana fasciata; after 7 days; read-out: Death rate
value.type: pest or weed control at 500 ppm

Request: What does the record list as pest or weed control at 500 ppm for CCS(=O)(=O)c1cc(C(F)(F)F)ccc1-c1nc2cc(C(F)(F)F)cnc2[nH]1 [compound 345] ?
Result: ≥ 90%

Request: What does the record list as pest or weed control at 500 ppm for CC(C)[S+]([O-])c1ccccc1-c1nc2cc(C(F)(F)F)cnc2n1C (stereo not drawn) [Present Compound 13] ?
Result: ≥ 90%

Request: What does the record list as pest or weed control at 500 ppm for CCS(=O)(=O)c1cc(C(F)(F)F)ccc1-c1nc2cc(C(F)(F)F)cnc2s1 [compound 251] ?
Result: ≥ 90%
